Molecular target: h FPR2 (Homo sapiens, UniProt P25090)
Assay: Agonistic activity in hFPR2-Aq-CHO cells (FLIPR Calcium 5 fluorescence assay)
Conditions: 11 point half log dilution, final assay concentration from 10µM
Protocol: After washing, the cells are plated at 10,000 cells per well in 40 µL complete medium in a 384-well sterile clear bottom black plate and incubated in a 5% CO2 incubator at 37°C for 18 hours. […] Compounds are finally added to the respective wells of the cell plate (final assay concentration 10 µM to 100 pM) using the FLIPR (e.g. FLIPR-Tetra, Molecular Devices) and fluorescence readings are captured for 5 minutes. […] The EC50 values of the compounds can be determined using e.g. Graph pad Prism software. […]
pEC50: −log10 of the molar value.
Outcome: Met for pEC50 of at least 8; Not met for anything lower.

Compound: Cc1cc(NC(=O)N[C@@H]2CCN(Cc3cc(C)on3)C[C@H]2c2ccc(Cl)s2)sn1 (single isomer, unassigned) [Ex-49]
Class name: Met
--
Compound: COc1ccc([C@H]2CN(CC(F)F)CC[C@@H]2NC(=O)Nc2cc(C)ns2)nc1 [Ex-214]
Class name: Met
--
Compound: COc1ccc([C@@H]2CN(C(=O)C3CC(O)C3)CC[C@H]2NC(=O)Nc2cc(C)ns2)nc1 (single isomer, unassigned) [Ex-183]
Class name: Not met
--
Compound: COc1ccc([C@@H]2CN(C(=O)C3CCN(C)CC3)CC[C@H]2NC(=O)Nc2ccc(Cl)cc2)nc1 (single isomer, unassigned) [Ex-187]
Class name: Met
--
Compound: COCCCN1CC[C@@H](NC(=O)Nc2ccc(Cl)cc2)[C@H](c2ccc(OC)cn2)C1 (single isomer, unassigned) [Ex-192]
Class name: Not met
--
Compound: COc1ccc([C@@H]2CN(CCO)CC[C@H]2NC(=O)Nc2ccccc2)nc1 (relative stereo) [Ex-164]
Class name: Not met
--
Compound: COc1ccc([C@H]2CN(Cc3cncc(F)c3)CC[C@@H]2NC(=O)Nc2ccc(Cl)cc2)nc1 (relative stereo) [Ex-68]
Class name: Met
--
Compound: COc1ccc([C@@H]2CN(CC3COC3)CC[C@H]2NC(=O)Nc2cc(C)ns2)nc1 (relative stereo) [Ex-204]
Class name: Met
--
Compound: Cc1cnc(N2CC[C@@H](NC(=O)Nc3cc(C)ns3)[C@H](c3ccc(Cl)cn3)C2)cn1 (relative stereo) [Ex-41]
Class name: Met
--
Compound: COc1cnc([C@@H]2CN(CCCN(C)C)CC[C@H]2NC(=O)Nc2ccc(Cl)cc2)c(F)c1 (relative stereo) [Ex-212]
Class name: Met
--
Compound: COc1ccc([C@@H]2CN(CC3(O)CC3)CC[C@H]2NC(=O)Nc2cc(C)ns2)nc1 (relative stereo) [Ex-182]
Class name: Met
--
Compound: COc1ccc([C@@H]2CN(CC3CC(O)C3)CC[C@H]2NC(=O)Nc2ccc(Cl)cc2)nc1 (single isomer, unassigned) [Ex-205]
Class name: Met
--
Compound: COc1ccc([C@@H]2CN(CCS(C)(=O)=O)CC[C@H]2NC(=O)Nc2ccccc2)nc1 (relative stereo) [Ex-160]
Class name: Not met
--
Compound: COc1ccc([C@@H]2CN(Cc3cnn(C)c3)CC[C@H]2NC(=O)Nc2ccc(Cl)cc2)nc1 (relative stereo) [Ex-145]
Class name: Met

====

Target: h FPR2 (Homo sapiens, UniProt P25090)
Sequence (P25090 1-351): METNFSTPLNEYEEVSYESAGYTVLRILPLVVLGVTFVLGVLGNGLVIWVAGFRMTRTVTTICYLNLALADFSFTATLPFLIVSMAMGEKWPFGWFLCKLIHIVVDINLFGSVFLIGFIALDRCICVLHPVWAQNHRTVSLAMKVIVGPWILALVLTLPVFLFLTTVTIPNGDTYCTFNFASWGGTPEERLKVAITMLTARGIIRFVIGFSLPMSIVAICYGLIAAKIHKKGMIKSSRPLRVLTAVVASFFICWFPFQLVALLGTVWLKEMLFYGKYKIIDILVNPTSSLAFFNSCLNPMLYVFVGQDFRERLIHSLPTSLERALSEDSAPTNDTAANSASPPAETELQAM
Experiment: Agonistic activity in hFPR2-Aq-CHO cells (FLIPR Calcium 5 fluorescence assay)
Details: 11 point half log dilution, final assay concentration from 10µM
Experimental: After washing, the cells are plated at 10,000 cells per well in 40 µL complete medium in a 384-well sterile clear bottom black plate and incubated in a 5% CO2 incubator at 37°C for 18 hours. […] Compounds are finally added to the respective wells of the cell plate (final assay concentration 10 µM to 100 pM) using the FLIPR (e.g. FLIPR-Tetra, Molecular Devices) and fluorescence readings are captured for 5 minutes. […] The EC50 values of the compounds can be determined using e.g. Graph pad Prism software. […]
pEC50: −log10 of the molar value. Counter-ions that a name gives are not always drawn.
Consider the following compounds and their measured pEC50 readings.
Experimental endpoint: pEC50

Compound: COc1ccc([C@@H]2CN(Cc3cc(C(F)(F)F)on3)CC[C@H]2NC(=O)Nc2ccc(Cl)cc2)nc1 (single isomer, unassigned) [Ex-38]
Experimental endpoint: pEC50
Measured: 7.27
//
Compound: COc1ccc([C@@H]2CN(CC(F)F)CC[C@H]2NC(=O)Nc2ccc(C#N)cc2)nc1 (single isomer, unassigned) [Ex-174]
Experimental endpoint: pEC50
Measured: 8.85
//
Compound: O=C(Nc1ccc(Cl)cc1)N[C@@H]1CCN(CC2CCNCC2)C[C@H]1c1ccc(Cl)s1 (single isomer, unassigned) [Ex-84, dihydrochloride]
Experimental endpoint: pEC50
Measured: 7.48
//
Compound: CS(=O)(=O)n1ccc(CN2CC[C@@H](NC(=O)Nc3ccccc3)[C@H](c3ccc(Cl)cn3)C2)n1 (relative stereo) [Ex-184]
Experimental endpoint: pEC50
Measured: 8.85
//
Compound: COc1ccc([C@@H]2CN(Cc3ccn(S(C)(=O)=O)n3)CC[C@H]2NC(=O)Nc2ccc(Cl)cc2)nc1 (single isomer, unassigned) [Ex-42]
Experimental endpoint: pEC50
Measured: 9.00
//
Compound: COc1cnc([C@@H]2CN(CC3CC3)CC[C@H]2NC(=O)Nc2ccc(Cl)cc2)c(F)c1 (relative stereo) [Ex-209]
Experimental endpoint: pEC50
Measured: 9.52
//
Compound: COc1ccc([C@@H]2CN(C(=O)CN(C)C)CC[C@H]2NC(=O)Nc2ccc(Cl)cc2)nc1 (single isomer, unassigned) [Ex-189]
Experimental endpoint: pEC50
Measured: 8.77
//
Compound: COc1ccc([C@@H]2CN(CCC(C)(C)C#N)CC[C@H]2NC(=O)Nc2ccc(Cl)cc2)nc1 (relative stereo) [Ex-144]
Experimental endpoint: pEC50
Measured: 9.00
//
Compound: COCCN1CC[C@@H](NC(=O)Nc2ccc(Cl)cc2)[C@H](c2ncc(OC)cc2F)C1 (relative stereo) [Ex-198]
Experimental endpoint: pEC50
Measured: 9.40
//
Compound: COc1ccc([C@@H]2CN(C(C)(C)CO)CC[C@H]2NC(=O)Nc2ccc(Cl)cc2)nc1 (relative stereo) [Ex-219]
Experimental endpoint: pEC50
Measured: 7.42
//
Compound: COc1ccc([C@@H]2CN(Cc3ccc(C)nc3)CC[C@H]2NC(=O)Nc2ccc(Cl)cc2)nc1 (relative stereo) [Ex-67]
Experimental endpoint: pEC50
Measured: 10.10
//
Compound: COc1ccc([C@@H]2CN(CC3CCOCC3)CC[C@H]2NC(=O)Nc2ccc(Cl)cc2)nc1 (single isomer, unassigned) [Ex-51]
Experimental endpoint: pEC50
Measured: 9.40
//
Compound: COc1ccc([C@@H]2CN(Cc3cc(C)on3)CC[C@H]2NC(=O)Nc2ccc(Cl)cc2)nc1 (single isomer, unassigned) [Ex-30]
Experimental endpoint: pEC50
Measured: 10.05

====

Biological target: UniProtKB P25090
Experiment: Agonistic activity in hFPR2-Aq-CHO cells (FLIPR Calcium 5 fluorescence assay)
Conditions: 11 point half log dilution, final assay concentration from 10µM
pEC50: −log10 of the molar value.
Consider the following compounds and their measured pEC50 readings.
Experimental endpoint: pEC50

Compound: COc1ccc([C@H]2CN(CC3(C(N)=O)CC3)CC[C@@H]2NC(=O)Nc2ccc(Cl)cc2)nc1
Tested on: UniProtKB P25090
Measured: 9.92
//
Compound: Cc1cc(NC(=O)N[C@@H]2CCN(c3cncc(C)n3)C[C@H]2c2ccc(Cl)cn2)sn1 (relative stereo)
Tested on: UniProtKB P25090
Measured: 8.40
//
Compound: COc1ccc([C@@H]2CN(CC3CCC(OC)CC3)CC[C@H]2NC(=O)Nc2ccc(Cl)cc2)nc1 (relative stereo)
Tested on: UniProtKB P25090
Measured: 9.30
//
Compound: COc1ccc([C@@H]2CNCC[C@H]2NC(=O)Nc2ccc(Cl)cc2)nc1 (relative stereo) [Ex-112]
Tested on: UniProtKB P25090
Measured: 8.92
